# measured.on: T1, PSMA Fab
# T1 construct: also called 006 PSMA Fab; anti-PSMA Fab
# assay.summary: BLI (Octet); PSMA Fab on sensor-loaded biotinylated peptide, 1:1 model
Where no end group is shown, it is not given here.
Entry flag: 1 if Off rate t1/2 reaches 2 min; 0 if it does not.

# binder, assigned.class
data = [
    ("FTNYCVPSWMCTGF (From the Peptide-180 optimisation phage library) [Peptide-267]", 0),
    ("IVVKCVPSWMCEGF (From the Peptide-180 optimisation phage library) [Peptide-282]", 0),
    ("ITPVCKPLWMCSGL (From the Peptide-180 optimisation phage library) [Peptide-274]", 1),
    ("VVIKCKPEWMCSGF (From the Peptide-180 optimisation phage library) [Peptide-277]", 0),
    ("VERLCTPAWMCHGF (From the Peptide-180 optimisation phage library) [Peptide-285]", 0),
    ("IAVLCQPNWMCAGF (cysteine pairing not given here; also: biotinylated, site not given here, PSMA mask peptide) [Peptide-180]", 0),
    ("AVKACIPEWMCIGF (From the Peptide-180 optimisation phage library) [Peptide-263]", 1),
]
